The origin of these recorded values is the supplement of paper PMC9170038.

Below: a set of entries, each annotated with reported apparent KD of MS2 coat protein.
Test system: MS2 coat protein
Measurement notes: apparent KD of MS2 coat protein; designed switch direction (-1 OFF switch, 1 ON switch): 1; higher = weaker reporter binding
Condition notes: Eterna round: R98; input ligand: FMN 200 uM
Readout label: apparent KD of MS2 coat protein

UAGAAGUGGUGAGGAUAUGAAUACGGCUCAUUAUCCUACAUGAGGAUCACCCAUGUGGGUGGUCGUCAGAAGGCACUGCUAUCG [Edretirige] : 181 nM
UCACUCAAGUUAGGAUAUGGAUCGGAAAACGAUCCAGAAGGAACAUGAAAACAUGAGCAUCAGCCAUGUUCCAGAAACGAGUGA [SameSame 4 - Jieux - Same State NG 1] : 23.6 nM
UCUGCUAUCGCAGGAUAUUACAUGGGAAAGAAUACAUGAGGAUCACCCAUGUAAAAGAUCAUAAAUAAGAAGGGCGAUAGCAGA [Lame State 7 - Jieux - Same State NG 2] : 116 nM
AGAACAUGAGGAUCACCCAUGUGAAGGUCGGCGUAUAAGGGUGAGGAUAUGCUUAAAAUAAGGAAGCAGAAGGUACUUGGUGCG [SameState #80 NG3] : 75.3 nM
GUAGCUAUCGCAGGAUAUCCUCAGGCGAAAGCCACAUGAGGAUCACCCAUGUAAAUAAAGAAUUUGGAGAAGGGCGAUAGCUAC [jl-sng2-2.34 Eli mod] : 24.7 nM
AAAACAUGAGGAUCACCCAUGUAAAGAUCGGUUAAUAGAAGUGAGGAUAUACAAAAUUUUAGGUAGUAGAAGGCACAGGGUACA [JR_SSNG3_Sub046] : 31.5 nM
GUAGCAUACCGAGGAUAUUCUCCGGAAAACCGGACAUGAGGAUCACCCAUGUGGCGAAAGCCUUGGGAGAAGGCGGAAUGCUAC [Xeinanis 75 29] : 18.6 nM
UAGAUCACCGAAGGAUAUGGGCAGAGUCCCGCUACAUGAGGAUCACCCAUGUCAGUCGGUCGUUUUCAGAAGGUCGGAAUGAUU [Zadi] : 57.1 nM
UUACGUCCCGUUUACAUGAGGAUCACCCAUGUCGAAAGACAUGAGGAUAUGCUACCUAGUUGGUAGCAGAAGGCGUGGACGUCG [salish99_SSNG3_r02_005] : 87.1 nM
GGACGUCACAUAAACAUGAGGAUCACCCAUGUCAAAAGACAUGAGGAUAUGGAUGCGAAACGCAUCCAGAAGGCAUGGACGUCC [EliMod 4 - Jieux - Same State NG 3] : 57.3 nM
AUUACAUGAGGAUCACCCAUGUACAGAACGUUUCAUUAAAGUGAGGAUAUACGAAAUUUAAAAGCGUAGAAGGCACUGGGUACA [SameState #43 NG3] : 24.2 nM
GGUUUCAGGAUAGGAUAUGGCGUGACAUGGCGGCCAGAAGGAUCCUCGGGAACAUGAGGAUCACCCAUGUGACCGUGUCGAGUC [Biveedve] : 190 nM
ACUGUCGCGUGAGGAUAUGGUCUGCAGUGCUGACCAGAAGGCAUGUCGAUAGACAUGAGGAUCACCCAUGUGGUUAGGGCGGAA [salish99_SSNG1_R02_019] : 194 nM
AAAACAUGAGGAUCACCCAUGUAUUGAACGGUUAAUAAAAGUGAGGAUAUACAAAAUUUUAUAUAGUAGAAGGCACUGGGUACA [JR_SSNG3_Sub009] : 20.8 nM
GGACUCACUUGAGGAUAUCGAGUGGAUAACACUCGAGAAGGCAGGGAAACCUGAGGAUCACCCAGGUAAGAGUCCAAUAAUAAA [Same State NG1 - A3C, U17G Submission 2D] : 19.9 nM
GGACAUGUCGUUUACAUGAGGAUCACCCAUGUCGAUGGACAUGAGGAUAUGGAUCCGAAUCGGAUCCAGAAGGCAUGCAUGUCC [SameState #7 NG3] : 17.9 nM
GGAGACCUCACAGGAUAUGCUGGACUUUGUCCAGCAGAAGGGUGAAAACAUGAGGAUCACCCAUGUAUGGUCUCCAAAUUUAAU [Denovo 57] : 30.4 nM
AAAUAAAAUAUAGGAUAUGGAAACAUGAGGAUCACCCAUGUAUGAUAAGAUAAAUAAUGAUAUAGCCAGAAGGAUAAAAUAUAA [LRO006_SS NG 2] : 42.7 nM
GCAUACAUUCGAGGAUAUCGGUGAACAAAUUAGCGAGAAGGCGAUAUAAUUUUUAAACUUAUUGACAUGAGGAUCACCCAUGUA [JR_SSNG1_Sub011] : 20.5 nM
AAAACAUGAGGAUCACCCAUGUAAAGAUCGGUUAAUAGAAGUGAGGAUAUGCUUAAAAUAAGGUAGCAGAAGGCACUGGGUACA [JR_SSNG3_Sub040] : 27.8 nM
